Each recorded value in this set is attributed to patent US9505730B2.

Measured IC50 accompanies every entry in the list below.
- tested-target: full-length human Mineralocorticoid Receptor (MR) (Homo sapiens)
- Sequence (P08235 1-984): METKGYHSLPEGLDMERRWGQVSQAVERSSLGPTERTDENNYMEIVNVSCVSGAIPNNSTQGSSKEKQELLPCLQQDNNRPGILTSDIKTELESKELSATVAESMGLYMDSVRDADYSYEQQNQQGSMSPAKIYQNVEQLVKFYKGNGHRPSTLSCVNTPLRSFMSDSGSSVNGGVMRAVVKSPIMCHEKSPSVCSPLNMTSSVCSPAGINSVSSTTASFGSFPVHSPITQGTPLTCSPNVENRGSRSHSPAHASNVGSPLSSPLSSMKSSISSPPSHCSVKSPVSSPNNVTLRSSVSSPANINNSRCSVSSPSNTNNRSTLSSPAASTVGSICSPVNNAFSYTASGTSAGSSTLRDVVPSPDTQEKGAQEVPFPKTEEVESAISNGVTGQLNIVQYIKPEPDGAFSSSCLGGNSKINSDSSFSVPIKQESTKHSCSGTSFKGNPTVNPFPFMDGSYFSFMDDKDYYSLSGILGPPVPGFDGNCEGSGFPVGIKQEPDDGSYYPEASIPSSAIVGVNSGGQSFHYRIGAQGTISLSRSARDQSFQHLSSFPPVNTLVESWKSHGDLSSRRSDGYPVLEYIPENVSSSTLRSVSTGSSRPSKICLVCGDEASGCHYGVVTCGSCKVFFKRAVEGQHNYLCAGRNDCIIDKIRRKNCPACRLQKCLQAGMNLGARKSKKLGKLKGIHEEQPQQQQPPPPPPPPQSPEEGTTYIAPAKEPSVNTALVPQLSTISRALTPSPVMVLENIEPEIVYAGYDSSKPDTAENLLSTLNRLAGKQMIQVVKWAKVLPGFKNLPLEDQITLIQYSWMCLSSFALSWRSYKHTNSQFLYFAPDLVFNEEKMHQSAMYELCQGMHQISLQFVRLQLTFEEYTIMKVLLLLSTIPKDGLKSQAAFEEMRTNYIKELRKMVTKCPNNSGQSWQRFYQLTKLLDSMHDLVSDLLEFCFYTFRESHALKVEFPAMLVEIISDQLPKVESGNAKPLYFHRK
- test-method-notes: human MR NH Pro assay (PathHunter Protein:Protein interaction assay, MR antagonism)
- details: PathHunter CHO-K1 cells overexpressing human MR; aldosterone 0.3 nM; 6 hours at 37° C.; luminescence; read-out: IC50 rating

Guide cases for IC50, answers given:
COc1cc(CNC(=O)[C@@]2(Cc3ccccc3)OC(=O)N(C3CCCc4ccccc43)C2=O)cc(OC)c1 (stereo partly shown) [Compound 7]	100 to 500 nM
C[C@H](C1CCCCC1)N1C(=O)O[C@](Cc2ccc(F)cc2)(C(=O)Nc2ccc(Cl)cc2)C1=O [Compound 16]	100 to 500 nM

Return reported IC50; argument: C[C@H](c1ccc(F)cc1)N1C(=O)O[C@](Cc2ccccc2)(C(=O)Nc2ccc(Cl)cc2)C1=O [Compound 14]
100 to 500 nM

Field entry: C[C@H](c1ccc(F)cc1)N1C(=O)O[C@](Cc2ccccc2)(C(=O)NC(c2cccc(Cl)c2)C(F)(F)F)C1=O (stereo partly shown) [Compound 18]
100 to 500 nM

Field entry: COc1cc(CNC(=O)[C@@]2(Cc3ccc(F)cc3)OC(=O)N([C@H](C)c3ccccc3)C2=O)cc(OC)c1 [Compound 3]
100 to 500 nM

Field entry: C[C@H](c1ccccc1)N1C(=O)O[C@](Cc2ccccc2)(C(=O)N2Cc3ccccc3C2)C1=O [Compound 22]
100 to 500 nM

Field entry: COc1cc(CNC(=O)[C@@]2(Cc3ccccc3)OC(=O)N(C(C)C)C2=O)cc(OC)c1 [Compound 6]
100 to 500 nM

Field entry: C[C@H](c1ccc(F)cc1)N1C(=O)O[C@](Cc2ccccc2)(C(=O)Nc2ccccc2)C1=O [Compound 19]
100 to 500 nM

Field entry: C[C@H](c1ccc(F)cc1)N1C(=O)O[C@](Cc2ccccc2)(C(=O)Nc2cccc(F)c2)C1=O [Compound 13]
100 to 500 nM
